# target-or-test-system: EGFR (Homo sapiens)
# Construct: endogenous in cells; host or cells: A431 cells (lysate, captured with SUMO1 anti-EGFR antibody)
# Sequence (P00533 25-1210): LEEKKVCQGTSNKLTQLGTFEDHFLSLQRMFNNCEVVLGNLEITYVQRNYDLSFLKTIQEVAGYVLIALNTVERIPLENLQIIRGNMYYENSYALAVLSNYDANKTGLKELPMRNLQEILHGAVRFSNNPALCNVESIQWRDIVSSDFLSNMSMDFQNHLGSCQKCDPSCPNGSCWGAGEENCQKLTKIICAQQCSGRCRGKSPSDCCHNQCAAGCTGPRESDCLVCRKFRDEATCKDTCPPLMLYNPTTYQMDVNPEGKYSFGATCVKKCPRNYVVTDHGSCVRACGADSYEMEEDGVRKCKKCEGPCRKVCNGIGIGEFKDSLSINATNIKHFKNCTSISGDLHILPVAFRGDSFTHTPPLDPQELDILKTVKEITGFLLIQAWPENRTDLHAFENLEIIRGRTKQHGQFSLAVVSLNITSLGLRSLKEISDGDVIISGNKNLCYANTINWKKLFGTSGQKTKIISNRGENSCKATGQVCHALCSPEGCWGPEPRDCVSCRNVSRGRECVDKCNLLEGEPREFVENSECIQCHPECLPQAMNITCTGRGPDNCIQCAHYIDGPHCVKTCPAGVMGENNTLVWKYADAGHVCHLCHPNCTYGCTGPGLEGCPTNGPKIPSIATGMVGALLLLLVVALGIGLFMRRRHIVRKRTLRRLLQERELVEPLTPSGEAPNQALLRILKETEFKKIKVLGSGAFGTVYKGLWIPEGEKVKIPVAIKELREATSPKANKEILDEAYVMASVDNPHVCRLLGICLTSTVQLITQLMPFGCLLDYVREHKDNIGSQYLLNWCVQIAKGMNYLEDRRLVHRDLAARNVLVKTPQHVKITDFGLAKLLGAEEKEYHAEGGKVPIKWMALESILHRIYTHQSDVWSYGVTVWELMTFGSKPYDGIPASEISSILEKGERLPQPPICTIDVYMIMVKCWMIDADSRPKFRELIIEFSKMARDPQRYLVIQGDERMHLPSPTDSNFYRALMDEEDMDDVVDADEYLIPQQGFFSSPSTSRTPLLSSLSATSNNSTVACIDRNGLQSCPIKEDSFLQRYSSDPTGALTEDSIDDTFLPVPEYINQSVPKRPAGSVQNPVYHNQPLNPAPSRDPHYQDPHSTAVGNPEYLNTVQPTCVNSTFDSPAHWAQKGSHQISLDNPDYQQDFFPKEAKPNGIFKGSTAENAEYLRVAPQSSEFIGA
# test-name: Biochemical EGFR Assay
# Set-up: concentration or dose not given beside the values
# applied-conditions: protocol P.167
measured-parameter: Biochem EGFR % Inhibition (P.167) (%)
All answers are understood in %, so give the number only.

Worked examples follow.
> print(dat)
                              molecule  observed.result
1  O=C1Nc2ccc(CCCl)cc2C1=Cc1cccc(F)c1F            −41.4
2    O=C1Nc2ccc(CCCl)cc2C1=Cc1ccccc1Cl             −6.4

Task: Please give the documented Biochem EGFR % Inhibition (P.167) of "COc1ccccc1C=C1C(=O)Nc2c(Br)cc(Br)c(C)c21"
Result: 1.6

Task: Please list Biochem EGFR % Inhibition (P.167) recorded for the compound "COc1ccc(C=C2C(=O)Nc3c(Br)cc(Br)c(C)c32)cc1O"
Result: −7.0

Task: Could you please provide reported Biochem EGFR % Inhibition (P.167) for "COc1ccc(C=C2C(=O)Nc3ccc(S(=O)(=O)Nc4ccc(C(F)(F)F)cc4)cc32)cc1F" ? Thanks!
Result: −14.1

Task: Retrieve Biochem EGFR % Inhibition (P.167) measured for "CNS(=O)(=O)c1ccc2c(c1)C(=Cc1ccc(Oc3ccccc3)cc1)C(=O)N2" and print it.
Result: 13.7

Task: Return Biochem EGFR % Inhibition (P.167) for the following compound: "Cc1c(Br)cc(Br)c2c1C(=Cc1cc(O)ccc1[N+](=O)[O-])C(=O)N2"
Result: 5.5

====

# target-or-test-system: Met receptor (EGFR/Met chimeric cells, EMR) (Homo sapiens)
# Construct: expressed in transfected cells; the other entry of the earlier key: EGFR (P00533, Epidermal growth factor receptor)
# Sequence (P08581 with tags, fused parts or gaps): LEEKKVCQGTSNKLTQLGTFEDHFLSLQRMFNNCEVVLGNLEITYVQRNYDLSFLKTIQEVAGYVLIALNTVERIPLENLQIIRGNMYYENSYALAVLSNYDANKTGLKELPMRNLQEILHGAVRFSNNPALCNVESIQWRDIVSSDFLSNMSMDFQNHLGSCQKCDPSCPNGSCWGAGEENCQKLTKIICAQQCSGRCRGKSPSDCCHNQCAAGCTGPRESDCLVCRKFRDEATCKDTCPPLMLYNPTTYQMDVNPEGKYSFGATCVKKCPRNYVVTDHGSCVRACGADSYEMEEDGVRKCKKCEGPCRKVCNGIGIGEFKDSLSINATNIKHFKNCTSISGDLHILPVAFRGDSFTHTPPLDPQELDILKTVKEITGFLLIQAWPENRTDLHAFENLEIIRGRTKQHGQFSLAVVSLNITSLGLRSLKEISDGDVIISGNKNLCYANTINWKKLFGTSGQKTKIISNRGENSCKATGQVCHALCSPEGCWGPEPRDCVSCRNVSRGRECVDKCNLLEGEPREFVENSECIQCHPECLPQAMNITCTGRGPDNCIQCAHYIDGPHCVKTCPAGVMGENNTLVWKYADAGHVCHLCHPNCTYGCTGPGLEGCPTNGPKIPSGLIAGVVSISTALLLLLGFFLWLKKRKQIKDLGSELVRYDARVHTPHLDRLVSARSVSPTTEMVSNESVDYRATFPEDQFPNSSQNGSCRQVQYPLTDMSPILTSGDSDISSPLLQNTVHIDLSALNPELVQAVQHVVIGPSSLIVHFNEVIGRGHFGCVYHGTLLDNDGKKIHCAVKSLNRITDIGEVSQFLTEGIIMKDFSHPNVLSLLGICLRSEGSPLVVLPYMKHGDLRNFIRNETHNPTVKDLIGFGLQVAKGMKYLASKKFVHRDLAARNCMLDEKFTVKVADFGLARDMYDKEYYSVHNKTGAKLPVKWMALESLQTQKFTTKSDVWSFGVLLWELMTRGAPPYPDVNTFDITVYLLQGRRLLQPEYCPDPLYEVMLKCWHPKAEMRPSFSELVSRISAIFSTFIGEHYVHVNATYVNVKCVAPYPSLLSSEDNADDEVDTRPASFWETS
# test-name: Met Autophosphorylation Assay
# Format: biochemical
# applied-conditions: protocol P.130
measured-parameter: Met Kinase % Inhibition (P.130) (%)
Please state the figure in %; there is no need to write the unit.

> print(dat)
                                   molecule  observed.result
1  CCCOc1ccc(C=C2C(=O)Nc3c(Br)cc(Br)cc32)cc1             41.7
2      COc1ccccc1C=C1C(=O)Nc2ccc(Br)c(C)c21              8.9
3  COc1ccc(C=C2C(=O)Nc3c(Br)cc(Br)cc32)cc1O             55.9

For the next question, use this molecule.
Task: Dear colleague, please send me the reported Met Kinase % Inhibition (P.130) for "COc1cccc(C=C2C(=O)Nc3c(Br)cc(Br)c(C)c32)c1" when you can.
Result: 32.1

====

# System: PDGF-R
# test-name: PDGF-R Assay (cellular ELISA, U1242 cells)
# Assay type: cell-based
# Design: concentration or dose not given beside the values
# applied-conditions: protocol P.119
# PDGF Kinase % Inhibition (P.119) per entry
Enter your answer as a number in %; do not include the unit.

Below, 4 molecules whose answers are already recorded.
> print(dat)
                                   molecule                measured.parameter  observed.result
1  COc1ccc(C=C2C(=O)Nc3c(Br)cc(Br)c(C)c32)cc1F [10737/H06]  PDGF Kinase % Inhibition (P.119)             −1.8
2  CNS(=O)(=O)c1ccc2c(c1)C(=Cc1cccc(Oc3ccc(C(C)(C)C)cc3)c1)C(=O)N2 [10737/D10]  PDGF Kinase % Inhibition (P.119)              7.0
3  Cc1cccc(C=C2C(=O)Nc3c(Br)cc(Br)c(C)c32)c1 [10736/H04]  PDGF Kinase % Inhibition (P.119)            −10.9
4  COc1ccc(C=C2C(=O)Nc3ccc(Br)c(C)c32)cc1F [10737/C06]  PDGF Kinase % Inhibition (P.119)              7.8

Task: Output reported PDGF Kinase % Inhibition (P.119) of the molecule O=C1Nc2ccc(S(=O)(=O)Nc3ccc(C(F)(F)F)cc3)cc2C1=CC1COc2ccccc2O1 (centres unmarked) [10739/E05] on PDGF-R.
Result: 10.6

Task: Give PDGF-R PDGF Kinase % Inhibition (P.119) for the following molecule: O=C1Nc2ccc(CCCl)cc2C1=CC1COc2ccccc2O1 (centres unmarked) [10739/G05]
Result: −5.9

Task: State measured PDGF Kinase % Inhibition (P.119) of the molecule O=C1Nc2ccc(CCCl)cc2C1=Cc1ccc2ccccc2c1 [10737/G08] with PDGF-R.
Result: 13.7

Task: # assay system PDGF-R: give PDGF Kinase % Inhibition (P.119) of COc1ccc(Oc2cccc(C=C3C(=O)Nc4ccc(S(=O)(=O)Nc5ccc(C(F)(F)F)cc5)cc43)c2)cc1 [10739/E08]
Result: 21.7

Task: // output PDGF Kinase % Inhibition (P.119); input COc1ccc(Oc2cccc(C=C3C(=O)Nc4ccc(S(=O)(=O)N5CCOCC5)cc43)c2)cc1 [10739/F08] ; system PDGF-R
Result: 9.1

Task: Under PDGF-R: report PDGF Kinase % Inhibition (P.119) of O=C1Nc2c(Br)cc(Br)cc2C1=Cc1ccc(Oc2ccccc2)cc1 [10737/A09] .
Result: 18.9
